The reported measurements were obtained from patent US10111885B2.

Below, each of the compounds is paired with its reported IC50 value.
System: C5 mRNA
Experiment: Complement gene mRNA expression, TaqMan real-time PCR, Huh-7 cells
Type: cell-based, human
Conditions: Homo sapiens; Huh-7, 48 h treatment; read-out: C5 (48 h) mRNA, half maximal inhibitory concentration (IC50)
Method: In this example, mRNA levels from cultured cells were quantitated. The assay can be used to determine the effect of compound(s) on regulating mRNA levels, including those compounds in the present invention. […] Huh-7 and HepG2 cells are liver-derived cell lines and are models for what can occur in the liver. […] The level of the mRNA of interest was measured by TaqMan real-time PCR relative to the endogenous control cyclophilin A in the same sample. […]

// solved cases for IC50 follow
# COMPOUND, OUTCOME MEASURE, READOUT VALUE
data = [
    ("COc1cc(OC)c2c(=O)[nH]c(-c3cc(C)c(OCCN4CCCC4)c(C)c3)nc2c1 [RVX000297]", "IC50", "> 10 µM"),
    ("COc1cc(OC)c2c(=O)[nH]c(-c3cc(C)c(OCCO)c(C)c3)nc2c1 [RVX000222]", "IC50", "> 30 µM"),
    ("COc1cc(OC)c2c(=O)[nH]c(-c3ccc(N4CCN(C(C)C)CC4)cc3)nc2c1 [RVX002109]", "IC50", "> 50 µM"),
]

Consider now this further compound.
Input: Entry COc1cc(OC)c2c(=O)[nH]c(-c3cc(C)c(OCCNC(C)C)c(C)c3)nc2c1 [RVX002135] , system C5 mRNA: what IC50 was measured?
Output: 37.9 µM

====

System: C5 mRNA
Test: Complement gene mRNA expression, TaqMan real-time PCR, HepG2 cells
Type: cell-based, human
Details: Homo sapiens, HepG2, 72 h, read-out: C5 (72 h) mRNA, half maximal inhibitory concentration (IC50)
OUTCOME MEASURE: IC50

# MOLECULE, TARGET OR TEST SYSTEM, READOUT VALUE
rows = [
    ("Cc1sc2c(c1C)C(c1ccc(Cl)cc1)=N[C@@H](CC(=O)OC(C)(C)C)c1nnc(C)n1-2 [JQ1, reference compound]", "C5 mRNA", "0.46 µM"),
]

// below: IC50 requested for another molecule
Input: Looking for the measured IC50 of `COc1cc(OC)c2c(=O)[nH]c(-c3cc(C)c(OCCO)c(C)c3)nc2c1` , can you help?
Output: 20 µM

====

Test system: C4a/C4b mRNA
Assay: Complement gene mRNA expression, TaqMan real-time PCR, Huh-7 cells
Format: cell-based, human
Settings: Homo sapiens; Huh-7, 48 h treatment; read-out: C4a/C4b (48 h) mRNA, half maximal inhibitory concentration (IC50)
Known IC50 of a selection of molecules
Report the value in µM with no unit label.

Some molecules with recorded IC50:
# GIVEN SMILES, READOUT VALUE
records = [
    ("COc1cc(OC)c2c(=O)[nH]c(-c3cc(C)c(OCCO)c(C)c3)nc2c1", 6.3),
    ("COc1cc(OC)c2c(=O)[nH]c(-c3ccc(N4CCN(C(C)C)CC4)cc3)nc2c1", 62.2),
    ("COc1cc(OC)c2c(=O)[nH]c(-c3cc(C)c(OCCNC(C)C)c(C)c3)nc2c1", 4.3),
]

Now for another entry.
Input: Any idea what IC50 was measured for `COc1cc(OC)c2c(=O)[nH]c(-c3cc(C)c(OCCN4CCCC4)c(C)c3)nc2c1` ?
Output: 4.5
